System: SW-620 colon
protocol: NCI tumour cell line growth inhibition, 48 h
The entries below come with measured TGI values attached.

Recorded results for 5 molecules are shown here.
molecule | TGI
Cc1cc(S(=O)(=O)O)c(NC(=O)c2oc3cc(O)ccc3c(=O)c2C)cc1Cl | > 100 µM
CCOC(=O)CCCn1cc(C(=O)OC)nn1 | > 100 µM
COc1nc2c(c(O)c(C)c(=O)n2OC2OC(COC(C)=O)C(OC(C)=O)C(OC(C)=O)C2OC(C)=O)c(=O)n1C (stereo unspecified) | > 100 µM
C/C(=C\Cc1cc(O)ccc1O)CCc1c(C)cc(O)c(C=O)c1C | > 100 µM
COc1ccc(-c2cc(/C=C/C(=O)c3cc(OC)c(OC)c(OC)c3)[nH]n2)cc1OC | 4.16 µM

The recorded TGI for "Cn1c(=O)sc2cc(C(=S)N3CCOCC3)ccc21" is > 100 µM

The recorded TGI for "COC(=O)c1ccc(/C=C2\CCc3ccccc3C2=O)cc1" is > 100 µM

The recorded TGI for "CC1(C)[C@@H]2CC[C@@]1(C)[C@H](O)[C@@H]2SCc1ccccc1" is 74.9 µM

The recorded TGI for O=C(O)C1C2C=CC(O2)C1C(=O)Nc1ncccn1 (stereo unspecified) is > 100 µM

The recorded TGI for "Cc1ccccc1NC(=O)C(=O)CC(=O)c1ccc([N+](=O)[O-])cc1" is > 100 µM

The recorded TGI for "CC(C)(C)c1c(C(C)(C)C)c(=O)c1=O" is > 100 µM

====

System: SK-MEL-28 melanoma
protocol: NCI tumour cell line growth inhibition, 48 h
property label: TGI (µM)
Quick note: give the figure in µM, leave out the unit.

entry smiles | target or system | TGI, µM
Cc1c(C(=O)OCc2ccccc2)[n+](=O)c2cc(F)c(F)cc2n1[O-] | SK-MEL-28 melanoma | 4.07
O=C(Cc1ccc(/C=C/C(=O)c2ncc[nH]2)cc1)Nc1ccc(C(F)(F)F)cc1 | SK-MEL-28 melanoma | 11.1

Continue with the next molecule.
The recorded TGI for "CCC(=O)c1cc([N+](=O)[O-])c(Br)s1" is 15.2

====

Test system: IGROV1 ovarian
protocol: NCI tumour cell line growth inhibition, 48 h
property label: GI50

Recorded results for 5 compounds are shown here.
compound | property label | test value
COc1ccc2[nH]c(-c3ccccc3)cc2c1 | GI50 | > 100 µM
Cc1ccc(/C=C2\CNC/C(=C\c3ccc(C)cc3)C2=O)cc1 | GI50 | 3.64 µM
Cc1cc(=O)oc2cc(OCCn3c(C)nn(-c4ccc(Cl)cc4)c3=O)ccc12 | GI50 | 35 µM
CC(=O)[CH-]C(=O)c1ccccc1.CC(=O)[CH-]C(=O)c1ccccc1.[CH2-]CCC.[CH2-]CCC.[Sn+4] | GI50 | 1.57 µM
COc1ccc(/C=C(/C(=O)n2cnnn2)c2cc(OC)c(OC)c(OC)c2)cc1 | GI50 | 4.69 µM

The recorded GI50 for O=C(O)C1C(C(=O)O)C2(Cl)C(Cl)=C(Cl)C1(Cl)C2(Cl)Cl.[Cd] (stereo not given) is 17.7 µM

The recorded GI50 for "CCc1cccc(CC)c1/C=C/c1cncc(C(=O)NC)c1" is > 21.7 µM

The recorded GI50 for CC12OC(C(=O)C13CCC3)C1C(=O)c3ccccc3C(=O)C12 (stereo not given) is > 100 µM

The recorded GI50 for CCN(CC)CCOc1ccc(/C=C2\CC3C4CC=C5C[C@@H](OC(C)=O)CC[C@]5(C)C4CC[C@]3(C)C2=O)cc1OC (stereo not given in full) is 4.65 µM

The recorded GI50 for "COc1ccc(-c2cc(/C=C/C(=O)c3cc(OC)c(OC)c(OC)c3)[nH]n2)cc1OC" is 2.72 µM

====

Test system: DLD-1 colon
protocol: NCI tumour cell line growth inhibition, 48 h
property label: TGI

Recorded results for 3 compounds are shown here.
compound | TGI
COC(=O)n1c(C[P+](c2ccccc2)(c2ccccc2)c2ccccc2)cc2ccccc21 | 11.4 µM
O=[N+]([O-])C1C2C=CC(C2)[C@H]1c1ccc(Cl)cc1Cl (some centres undefined) | > 100 µM
CC[P+]1(CC)CCCC1 | > 100 µM

The recorded TGI for "O=C1C(c2ccccc2)=C(c2ccccc2)[C@H](c2ccccc2)[C@]1(Cc1nnn(-c2ccc([N+](=O)[O-])cc2)c1N1CCOCC1)c1ccccc1" is > 37.5 µM

The recorded TGI for CC(c1ccccc1)N1CC(C)(c2ccccc2)N(O)C(c2ccccc2)C1C (centres undefined) is > 100 µM

The recorded TGI for "COc1cc2cccc(N=Cc3c(Br)ccc(OC)c3OC(C)C)c2cc1OC" is 82.2 µM

The recorded TGI for "Nc1c(N=Nc2ccc(-c3ccc(N=Nc4c(O)ccc5cc(S(=O)(=O)O)cc(S(=O)(=O)O)c45)cc3)cc2)c(S(=O)(=O)O)cc2cc(S(=O)(=O)O)c(N=Nc3ccccc3)c(O)c12" is > 100 µM

The recorded TGI for "O=C(O)[C@@H]1CCCC[C@@H]1C(=O)N(C1CCCCC1)C1CCCCC1" is > 100 µM

The recorded TGI for "CC[C@@]1(O)C(=O)OCc2c1cc1n(c2=O)Cc2cc3c(N)cccc3nc2-1" is > 51.7 µM

====

Tested on: OVCAR-4 ovarian
protocol: NCI tumour cell line growth inhibition, 48 h
The entries below come with measured TGI values attached.

Recorded results for 5 compounds are shown here.
compound | target or system | property label | test value
COc1cc2cc(C(=O)N3CC(CCl)c4c3cc([N+](C)(C)Cc3ccc([N+](=O)[O-])n3C)c3ccccc43)[nH]c2c(OC)c1OC (centres undefined) | OVCAR-4 ovarian | TGI | 6.35 µM
CCOCNc1ccc(N2C(=O)/C(=C/c3ccc(N(CC)CC)cc3)N=C2c2ccccc2)cc1 | OVCAR-4 ovarian | TGI | > 100 µM
C/C(=N\n1c(N)c(C#N)c(-c2ccc(Cl)cc2)c(C#N)c1=O)c1ccncc1 | OVCAR-4 ovarian | TGI | 43.6 µM
CNc1ccc(S(=O)Nc2ccccc2)cc1 (centres undefined) | OVCAR-4 ovarian | TGI | > 100 µM
O=c1c2c(nc3n1CCC3)sc1c(O)c(Br)ccc12 | OVCAR-4 ovarian | TGI | 54.9 µM

Continue with the next compound.
Readout TGI for "CC(=O)c1ccc(NC(=O)CSc2nc(C)nc3c2sc(=S)n3-c2ccccc2)cc1" , test system OVCAR-4 ovarian, was > 3.16 µM

====

System: SF-268 CNS
protocol: NCI tumour cell line growth inhibition, 48 h
property label: TGI

Recorded results for 2 compounds are shown here.
compound | target or system | TGI
CC1=C2NCN(C)N=C2C(C#N)(C#N)C1(C#N)C#N | SF-268 CNS | > 76.6 µM
O=C1OI(C#Cc2ccccc2)c2ccccc21 | SF-268 CNS | 9.96 µM

The recorded TGI for "COC(=O)c1cc2c3c(ccc2[nH]1)N(C(=O)c1cc2c4c(ccc2[nH]1)N(C(=O)c1cc2c5c(ccc2[nH]1)N(C(N)=O)CC5)CC4)CC3" is > 100 µM

The recorded TGI for "Cn1cc(CO)c2ccccc21" is > 100 µM

The recorded TGI for "O=C(Nc1cc(S(=O)(=O)c2ccc(Cl)cc2)ccc1Cl)c1cc(I)cc(I)c1O" is 40.4 µM

====

System: CAKI-1 renal
protocol: NCI tumour cell line growth inhibition, 48 h
The entries below come with measured TGI values attached.

compound | test value
NS(=O)(=O)c1ccc(NC(=O)c2cccn3c(=O)c4ccccc4nc23)cc1 | > 100 µM
O=C(Nc1cc(S(=O)(=O)c2ccc(Cl)cc2)ccc1Cl)c1cc(I)cc(I)c1O | 38.2 µM
CC(C)(C)c1ccc(-c2nnc(-c3cc(C#N)cc(-c4nnc(-c5ccc(C(C)(C)C)cc5)o4)c3)o2)cc1 | > 100 µM
c1ccc([P+](c2ccccc2)(c2ccccc2)c2ccc([P+](c3ccccc3)(c3ccccc3)c3ccccc3)cc2)cc1 | > 100 µM
COc1cccc(CN(C(=O)/C=C\Sc2ccccc2)C(C)(C)C)c1 | > 100 µM
C=C1CC(Cn2cc(Br)c(=O)[nH]c2=O)(c2ccc(-c3ccccc3)cc2)OC1=O (centres undefined) | 4.41 µM
CC(=O)c1ccc(NC(=O)CSc2nc(C)nc3c2sc(=S)n3-c2ccccc2)cc1 | > 3.16 µM
O=C(Nc1ccccc1O)c1ccc(CNC(=O)c2ccsc2Nc2ccnc(C(F)(F)F)c2)cc1 | 9.96 µM

Continue with the next compound.
Readout TGI for "O=C(/C=C/c1cn(-c2ccccc2)nc1-c1ccc([N+](=O)[O-])cc1)c1ccc(Cl)cc1" , test system CAKI-1 renal, was > 100 µM

====

The entries below come with measured GI50 values attached.
Tested on: NCI-H23 lung
protocol: NCI tumour cell line growth inhibition, 48 h

Recorded results for 4 molecules are shown here.
entry smiles | test value
O=C(CCN1CCCC1)Nc1ccc2c(Nc3ccccc3)c3ccccc3nc2c1 | 0.383 µM
Nc1ccn([C@@H]2C(F)=C(CO)[C@@H](O)[C@H]2O)c(=O)n1 | 3.84 µM
O=C(/C=C/c1cn(-c2ccccc2)nc1-c1ccc([N+](=O)[O-])cc1)c1ccc(Cl)cc1 | 3.67 µM
C/C(=N\n1c(N)c(C#N)c(-c2ccc(Cl)cc2)c(C#N)c1=O)c1ccncc1 | 11 µM

Continue with the next molecule.
The recorded GI50 for "Cc1cc(=O)oc2cc(OCCn3c(C)nn(-c4ccc(Cl)cc4)c3=O)ccc12" is 2.83 µM
